- System: MALME-3M melanoma
- Assay: NCI-60 one-dose screen, 48 h
- Measurement parameters: 10 µM unless noted
- Protocol: Cells are grown in 96 well plates and exposed to the test compound for 48 hours. Compounds are tested at a single concentration, which is 10^-5 M for most compounds. The reported endpoint is percent growth (GI% or GIPRCNT), where numbers from 0 - 100% represent growth inhibition, and numbers from -100% - 0 represent cell death. For example, a value of 40 represents 60% growth inhibition. A value of 0 means no net growth occurred over the course of the experiment. […]
This is part of a sample that, as a whole, favours compounds with a hit. Of some 83,000 tested, about 20% had one in any assay. Active and inactive are the calls of the source. Rule for the calls: active = growth percent below 10; inactive = the rest.
Would you mind answering with one of these outcomes? active, inactive

Would you please look over these solved cases?
• Cc1nc2ccccc2c(/C=C/c2ccc(Cl)cc2)c1C(=O)/C=C/c1ccc(F)cc1 = active
• N#Cc1c2c(nn(-c3ccccc3)c1=O)C(O)=C([N+](=O)[O-])C(c1ccccc1)C2 (stereo not drawn) = inactive
• Cc1ccc(-c2c(-c3ccccc3)c(=O)oc3ccc(C)cc23)cc1 = inactive
• O=C(NCCCNc1cc(-c2cn(-c3ccccc3)nc2-c2cccc(O)c2)ccn1)c1ccc(F)cc1 = active

Which outcome was assigned to c1csc(-c2c3ccc(=[N+]4CCCCC4)cc-3oc3cc(N4CCCCC4)ccc23)c1 in this test?
active

Next compound up: COc1cccc(-c2nn(-c3ccccc3)cc2-c2ccnc(NCCNC(=O)Nc3ccc(Cl)c(Cl)c3)c2)c1
inactive

Consider next the compound NS(=O)(=O)c1ccc(-n2nc(C(=O)N/N=C\c3ccc(F)cc3)cc2-c2ccc(Cl)cc2)cc1 in the same way.
inactive

Same thing, different compound: NC(=O)c1ccc[n+]([C@@H]2O[C@H](COP(=O)([O-])OP(=O)(O)OC[C@H]3O[C@@H](n4cnc5c(N)ncnc54)[C@H](O)[C@@H]3O)[C@@H](O)[C@H]2O)c1
inactive

Another: Cc1cc(Cl)nc(NCc2cc(Nc3ccnc4cc(Cl)ccc34)ccc2F)n1
inactive

Cc1cccc(Cc2cnc(NC(=O)c3ccc4nnsc4c3)s2)c1 , same question.
inactive

Item: C=C(C)[C@@H]1CC[C@]2(C(=O)NC3CCCCC3)CC[C@]3(C)[C@H](CC[C@@H]4[C@@]5(C)CCCNC(C)(C)[C@@H]5CC[C@]43C)[C@@H]12
active

Next record, please: CC(C)(C)n1cc(-c2ccnc(NCCCNS(=O)(=O)c3ccccc3)c2)c(-c2ccccc2)n1
inactive

Thanks! And Cc1cc(C)c(-c2c(C)cc(C)cc2CBr)c(CBr)c1 ?
inactive

Next record, please: c1cc2ccc3cc2cc1CNCCOCCNCc1ccc2ccc(cc2c1)CNCCOCCNC3
active

# iterate: Cn1ccc2c(c1=O)C(=O)c1nccc3c1c-2nc1ccccc13
inactive

Query CCN1C(=O)N(CC)C2C1NN=c1s/c(=C\c3cccs3)c(=O)n12 (stereo not drawn) next
inactive
